Values from ChEMBL document CHEMBL1124223

# Test system: Klebsiella pneumoniae
# Assay Text: Minimum inhibitory concentration against Klebsiella pneumoniae (MGH-2)
# Assay type: functional
Labelling field: enter Fulfilled if recorded MIC is less than 0.4 µg/mL. Enter Not fulfilled if it equals or exceeds that cut-off.

Incoming: Problem: For the compound CCNCC1CCN(c2c(F)cc3c(=O)c(C(=O)O)cn(-c4ccc(F)cc4)c3c2F)C1 (centres undefined) , is MIC under 0.4 µg/mL?
Outgoing: Not fulfilled

Incoming: Okay, and CCNCC1CCN(c2c(F)cc3c(=O)c(C(=O)O)cn(CC)c3c2F)C1 (centres undefined) ?
Outgoing: Fulfilled

Incoming: Okay, and CCn1cc(C(=O)O)c(=O)c2cc(F)c(N3CCNCC3)cc21 ?
Outgoing: Fulfilled

Incoming: Okay, and CCNCC1CCN(c2c(F)cc3c(=O)c(C(=O)O)cn(C4(C)CC4)c3c2F)C1 (centres undefined) ?
Outgoing: Not fulfilled

Incoming: Okay, and CCNCC1CCN(c2c(F)cc3c(=O)c(C(=O)O)cn(OC)c3c2F)C1 (centres undefined) ?
Outgoing: Fulfilled

Incoming: Okay, and CCNCC1CCN(c2c(F)cc3c(=O)c(C(=O)O)cn(C4CC4)c3c2F)C1 (centres undefined) ?
Outgoing: Fulfilled

----------
# Test system: Providencia rettgeri
# Assay Text: Minimum inhibitory concentration against Providencia rettgeri. (M1771)
# Type: functional
Readout Label: MIC (µg/mL)
Numbers only, in µg/mL.

// below: answered compounds
>>> measured_number("CCNCC1CCN(c2c(F)cc3c(=O)c(C(=O)O)cn(-c4ccccc4)c3c2F)C1 (centres undefined)")
6.3
>>> measured_number("O=C(O)c1cn(C2CC2)c2cc(N3CCNCC3)c(F)cc2c1=O [CIPROFLOXACIN]")
0.1
>>> measured_number("CN1CCN(c2cc3c(cc2F)c(=O)c(C(=O)O)cn3-c2ccc(F)cc2)CC1 [DIFLOXACIN]")
1.6
>>> measured_number("CCNCC1CCN(c2c(F)cc3c(=O)c(C(=O)O)cn(C4CCCC4)c3c2F)C1 (centres undefined)")
12.5
>>> measured_number("CCNCC1CCN(c2c(F)cc3c(=O)c(C(=O)O)cn(CC)c3c2F)C1 (centres undefined) [MERAFLOXACIN]")
0.4
>>> measured_number("CCNCC1CCN(c2c(F)cc3c(=O)c(C(=O)O)cn(CC(F)(F)F)c3c2F)C1 (centres undefined)")
3.1
>>> measured_number("CCn1cc(C(=O)O)c(=O)c2cc(F)c(N3CCNCC3)cc21 [NORFLOXACIN]")
0.05
>>> measured_number("CCNCC1CCN(c2c(F)cc3c(=O)c(C(=O)O)cn(CC4CC4)c3c2F)C1 (centres undefined)")
12.5

// switching to the query compound
Incoming: Write down the reported MIC of CCNCC1CCN(c2c(F)cc3c(=O)c(C(=O)O)cn(CCF)c3c2F)C1 (centres undefined) , test system: Providencia rettgeri.
Outgoing: 0.8

----------
# Tested on: Enterobacter cloacae
# Assay Text: Minimum inhibitory concentration against Enterobacter cloacae. (MA2446).
# Format: functional
Labelling field: enter true (1) if recorded MIC is less than 0.2 µg/mL. Enter false (0) if it equals or exceeds that cut-off.

Please review the following examples before continuing.
>>> cat("CCNCC1CCN(c2c(F)cc3c(=O)c(C(=O)O)cn(C4CCCCC4)c3c2F)C1 (centres undefined)")
"false (0)"
>>> cat("CCn1cc(C(=O)O)c(=O)c2cc(F)c(N3CCNCC3)cc21 [NORFLOXACIN]")
"true (1)"
>>> cat("CCNCC1CCN(c2c(F)cc3c(=O)c(C(=O)O)cn(C4CC4)c3c2F)C1 (centres undefined) [PD-117558]")
"true (1)"
>>> cat("CCNCC1CCN(c2c(F)cc3c(=O)c(C(=O)O)cn(C4CCCC4)c3c2F)C1 (centres undefined)")
"false (0)"

Incoming: Problem: For the molecule CCNCC1CCN(c2c(F)cc3c(=O)c(C(=O)O)cn(C4CCC4)c3c2F)C1 (centres undefined) , is MIC under 0.2 µg/mL?
Outgoing: false (0)

Incoming: Okay, and CCNCC1CCN(c2c(F)cc3c(=O)c(C(=O)O)cn(-c4ccccc4)c3c2F)C1 (centres undefined) ?
Outgoing: false (0)
